Target: mGlu5 receptor (Rattus norvegicus)
Sequence (P31424 21-1203): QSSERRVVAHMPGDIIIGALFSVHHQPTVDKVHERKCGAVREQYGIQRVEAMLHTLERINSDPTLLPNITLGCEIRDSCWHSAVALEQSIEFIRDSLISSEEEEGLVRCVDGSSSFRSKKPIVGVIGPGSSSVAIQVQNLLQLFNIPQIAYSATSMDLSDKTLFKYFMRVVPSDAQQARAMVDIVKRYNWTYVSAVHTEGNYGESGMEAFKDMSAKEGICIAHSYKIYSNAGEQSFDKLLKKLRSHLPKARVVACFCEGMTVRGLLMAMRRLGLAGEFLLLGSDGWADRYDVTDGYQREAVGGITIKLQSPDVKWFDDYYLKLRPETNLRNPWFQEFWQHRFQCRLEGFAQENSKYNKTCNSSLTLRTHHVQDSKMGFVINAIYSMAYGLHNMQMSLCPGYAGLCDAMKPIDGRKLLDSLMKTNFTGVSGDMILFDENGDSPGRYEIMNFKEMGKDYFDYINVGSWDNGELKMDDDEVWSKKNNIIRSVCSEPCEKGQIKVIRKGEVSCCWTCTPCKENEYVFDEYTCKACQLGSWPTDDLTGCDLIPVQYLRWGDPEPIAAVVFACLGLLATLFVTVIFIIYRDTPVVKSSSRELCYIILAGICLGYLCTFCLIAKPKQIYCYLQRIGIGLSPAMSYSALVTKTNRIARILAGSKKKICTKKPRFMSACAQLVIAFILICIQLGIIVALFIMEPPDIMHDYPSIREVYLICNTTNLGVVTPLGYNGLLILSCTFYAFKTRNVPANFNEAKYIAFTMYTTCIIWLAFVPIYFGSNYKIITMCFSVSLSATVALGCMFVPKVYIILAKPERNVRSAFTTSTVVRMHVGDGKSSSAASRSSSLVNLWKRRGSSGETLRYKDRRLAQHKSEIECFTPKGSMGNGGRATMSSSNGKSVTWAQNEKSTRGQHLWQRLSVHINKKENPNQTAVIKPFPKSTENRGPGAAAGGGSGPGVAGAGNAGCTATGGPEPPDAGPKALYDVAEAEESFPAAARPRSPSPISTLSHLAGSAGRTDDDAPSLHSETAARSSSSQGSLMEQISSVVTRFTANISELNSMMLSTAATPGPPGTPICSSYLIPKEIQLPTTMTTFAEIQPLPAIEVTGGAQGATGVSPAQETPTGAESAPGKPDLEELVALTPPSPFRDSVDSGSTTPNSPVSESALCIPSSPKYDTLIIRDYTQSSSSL
PARAMETER: Ki (nM)

{"columns": ["MOLECULAR_STRING", "READING"],
 "data": [
  ["Cc1cccc(C#CC=C2CCN(c3ncccc3[N+](=O)[O-])CC2)n1", 0.37]
]}

Cited source: patent US8518916B2
